- assay_method_text: log P (physical data)
- Assay type: physicochemical
- test_parameters: neutral; read-out: log P (neutral)

{"structure_string": "COc1ccc(OCC=C(Cl)Cl)cc1-c1noc(CCCOc2ccc(C(F)(F)F)cn2)n1", "logP": 4.93}

###

- assay_method_text: log P (physical data)
- Assay type: physicochemical
- test_parameters: pH=2.3; read-out: log P(pH=2.3)

{"compound": "COc1c(Cl)cc(OCC=C(Cl)Cl)cc1C1=NC(CO)CO1 (stereo not shown)", "logP": 2.05}
